The reported measurements were obtained from patent US8987473B2.

measured_on: human URAT1 (Homo sapiens (Human))
Sequence (Q96S37 whole entry): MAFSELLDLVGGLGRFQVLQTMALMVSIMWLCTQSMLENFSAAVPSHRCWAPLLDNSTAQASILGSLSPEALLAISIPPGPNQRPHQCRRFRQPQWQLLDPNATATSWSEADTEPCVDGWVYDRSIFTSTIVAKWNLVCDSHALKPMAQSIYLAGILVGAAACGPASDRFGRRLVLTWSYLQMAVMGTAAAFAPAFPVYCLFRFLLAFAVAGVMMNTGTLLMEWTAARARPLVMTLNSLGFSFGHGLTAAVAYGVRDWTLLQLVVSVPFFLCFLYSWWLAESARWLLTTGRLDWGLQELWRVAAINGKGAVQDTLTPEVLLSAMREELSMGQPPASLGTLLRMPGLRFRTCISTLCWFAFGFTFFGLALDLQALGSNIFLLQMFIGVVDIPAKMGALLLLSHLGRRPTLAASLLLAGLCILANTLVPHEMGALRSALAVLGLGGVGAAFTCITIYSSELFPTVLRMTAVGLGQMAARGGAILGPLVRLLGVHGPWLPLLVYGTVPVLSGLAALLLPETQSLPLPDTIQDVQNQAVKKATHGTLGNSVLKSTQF
test_details: Test for uric acid transport inhibition using human URAT1 expression cell
measurement_setup: human URAT1 stable expression CHO cell; 14C-labeled uric acid 38 μM final concentration; incorporation at room temperature for 5 minutes; 100% window defined with benzbromarone 100 μM; read-out: URAT1 Inhibitory Activity (IC50)
Method: In this Example, it was evaluated whether the Example compound has the URAT1 inhibitory activity. Human URAT1 full-length cDNA was introduced to an expression vector pcDNA5/FRT/V5-His TOPO (registered trademark) (Invitrogen Corporation). […]
quantity: IC50 (nM)

// solved cases for IC50 follow
[[record]]
molecule = "Cc1cccc(Cl)c1Cn1nc(C)c2ccc(CC(=O)O)cc21 [Example 102]"
quantity_unit = "nM"
value_measured = 52

[[record]]
molecule = "Cc1cccc(C)c1Cn1nc(Cl)c2ccc(C(=O)O)cc21 [Example 149]"
quantity_unit = "nM"
value_measured = 53


A. Cc1nn(Cc2c(Cl)cccc2Cl)c2cc(C(=O)O)ccc12 [Example 119]
B. Cc1cccc(C)c1Cn1cc(C)c2ccc(CC(=O)O)cc21 [Example 64]
Q. Of A and B , which carries the smaller reported IC50 figure? Answer by stating the label of the chosen item.
A. B
(B: 22 nM, A: 65 nM)
